Source of measurements: patent US20250019427A1

- target: T1, GDF15 (Homo sapiens (Human), UniProt Q99988 30-308)
- T1 sequence: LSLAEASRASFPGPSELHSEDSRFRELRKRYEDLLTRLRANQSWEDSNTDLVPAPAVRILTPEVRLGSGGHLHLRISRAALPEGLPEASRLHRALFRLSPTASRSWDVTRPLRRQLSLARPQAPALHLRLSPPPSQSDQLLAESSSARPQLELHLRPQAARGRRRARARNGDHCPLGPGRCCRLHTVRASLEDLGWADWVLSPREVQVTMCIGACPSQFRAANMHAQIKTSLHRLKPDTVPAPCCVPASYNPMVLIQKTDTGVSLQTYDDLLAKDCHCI
- measurement.description: cell-based or functional assay
Quick rule for you: GDF15 - GFRAL RET pERK IC50 (pM) at 40 pM or higher means 1, lower means 0.

Recorded results for 2 binders are shown here.
binder	label.value
Clone K IgG (antibody, V domains shown, IgG format) VH: QVQLVQSGAEVKKPGASVKVSCKASGYTFTNEGISWVRQAPGQGLEWMGWISAYTADTFYAQKLQGRVTMTTDTSTSTAYMELRSLRSDDTAVYYCARTRHDTSGLRFDYWGQGTLVTVSS VL: DIQMTQSPSSVSASVGDRVTITCRASQGIDSWLAWYQQKPGKAPKLLIYAASSLQSGVPSRFSGSGSGTDFTLTISSLQPEDFATYYCQQVHSFPITFGGGTKVEIKR	1
Clone L IgG (antibody, V domains shown, IgG format) VH: QVQLVQSGAEVKKPGASVKVSCKASGYTFASYDIIWVRQAPGQGLEWMGWISALSGDTVYAQKLQGRVTMTTDTSTSTAYMELRSLRSDDTAVYYCARTRHDTSGIRFDYWGQGTLVTVSS VL: DIQMTQSPSSVSASVGDRVTITCRASQGIDSWLAWYQQKPGKAPKLLIYAASSLQSGVPSRFSGSGSGTDFTLTISSLQPEDFATYYCQQVHSFPITFGGGTKVEIKR	0

Does GDF15 - GFRAL RET pERK IC50 (pM) meet or surpass 40 pM for Clone J IgG (antibody, V domains shown, IgG format) VH: QVQLVQSGAEVKKPGASVKVSCKASGYTFTSYGINWVRQAPGQGLEWMGWIDAYSGSTNYAQKLQGRVTMTTDTSTSTAYMELRSLRSDDTAVYYCARGPGQYADVDVWGQGTMVTVSS VL: DIQMTQSPSSVSASVGDRVTITCRASQGISSWLAWYQQKPGKAPKLLIYAASSLQSGVPSRFSGSGSGTDFTLTISSLQPEDFATYYCQQANSFPITFGGGTKVEIKR ?
0

Does GDF15 - GFRAL RET pERK IC50 (pM) meet or surpass 40 pM for Clone E IgG (antibody, V domains shown, IgG format) VH: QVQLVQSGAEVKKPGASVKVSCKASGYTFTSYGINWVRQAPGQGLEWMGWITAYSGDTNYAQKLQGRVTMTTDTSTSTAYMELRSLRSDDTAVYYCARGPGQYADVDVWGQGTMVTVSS VL: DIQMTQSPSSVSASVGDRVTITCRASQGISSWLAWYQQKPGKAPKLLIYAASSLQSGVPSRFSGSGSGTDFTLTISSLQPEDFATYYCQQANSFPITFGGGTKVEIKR ?
0

Does GDF15 - GFRAL RET pERK IC50 (pM) meet or surpass 40 pM for Clone I IgG (antibody, V domains shown, IgG format) VH: QVQLVQSGAEVKKPGASVKVSCKASGYTFTDEGINWVRQAPGQGLEWMGWITAYSGDTVYAQKLQGRVTMTTDTSTSTAYMELRSLRSDDTAVYYCARGPGQYADVDVWGQGTMVTVSS VL: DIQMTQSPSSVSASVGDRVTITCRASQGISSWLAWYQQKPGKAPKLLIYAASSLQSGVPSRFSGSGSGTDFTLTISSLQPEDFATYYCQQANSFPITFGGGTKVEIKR ?
0

Does GDF15 - GFRAL RET pERK IC50 (pM) meet or surpass 40 pM for Clone P IgG (antibody, V domains shown, IgG format) VH: QVQLVQSGAEVKKPGATVKVSCKASGYTFDSYGIHWVRQAPGQGLEWMGWITAYSGDTVYAQKLQGRVTMTTDTSTSTAYMELRSLRSDDTAVYYCARESGQTSSALGPWGQGTLVTVSS VL: DIQMTQSPSSVSASVGDRVTITCRASQGISRWLAWYQQKPGKAPKLLIYAASSLQSGVPSRFSGSGSGTDFTLTISSLQPEDFATYYCQQGASFPLTFGGGTKVEIKR ?
0
